target: EGFR (L858R) (Homo sapiens, UniProt P00533, L858R); construct: purchased DiscoverX; experiment: scanKINETIC binding kinetics assay (DiscoverX); details: Kd, EGFR LR (1 h), scanKINETIC; 1 h incubation
Sequence (P00533 25-1210 L858R): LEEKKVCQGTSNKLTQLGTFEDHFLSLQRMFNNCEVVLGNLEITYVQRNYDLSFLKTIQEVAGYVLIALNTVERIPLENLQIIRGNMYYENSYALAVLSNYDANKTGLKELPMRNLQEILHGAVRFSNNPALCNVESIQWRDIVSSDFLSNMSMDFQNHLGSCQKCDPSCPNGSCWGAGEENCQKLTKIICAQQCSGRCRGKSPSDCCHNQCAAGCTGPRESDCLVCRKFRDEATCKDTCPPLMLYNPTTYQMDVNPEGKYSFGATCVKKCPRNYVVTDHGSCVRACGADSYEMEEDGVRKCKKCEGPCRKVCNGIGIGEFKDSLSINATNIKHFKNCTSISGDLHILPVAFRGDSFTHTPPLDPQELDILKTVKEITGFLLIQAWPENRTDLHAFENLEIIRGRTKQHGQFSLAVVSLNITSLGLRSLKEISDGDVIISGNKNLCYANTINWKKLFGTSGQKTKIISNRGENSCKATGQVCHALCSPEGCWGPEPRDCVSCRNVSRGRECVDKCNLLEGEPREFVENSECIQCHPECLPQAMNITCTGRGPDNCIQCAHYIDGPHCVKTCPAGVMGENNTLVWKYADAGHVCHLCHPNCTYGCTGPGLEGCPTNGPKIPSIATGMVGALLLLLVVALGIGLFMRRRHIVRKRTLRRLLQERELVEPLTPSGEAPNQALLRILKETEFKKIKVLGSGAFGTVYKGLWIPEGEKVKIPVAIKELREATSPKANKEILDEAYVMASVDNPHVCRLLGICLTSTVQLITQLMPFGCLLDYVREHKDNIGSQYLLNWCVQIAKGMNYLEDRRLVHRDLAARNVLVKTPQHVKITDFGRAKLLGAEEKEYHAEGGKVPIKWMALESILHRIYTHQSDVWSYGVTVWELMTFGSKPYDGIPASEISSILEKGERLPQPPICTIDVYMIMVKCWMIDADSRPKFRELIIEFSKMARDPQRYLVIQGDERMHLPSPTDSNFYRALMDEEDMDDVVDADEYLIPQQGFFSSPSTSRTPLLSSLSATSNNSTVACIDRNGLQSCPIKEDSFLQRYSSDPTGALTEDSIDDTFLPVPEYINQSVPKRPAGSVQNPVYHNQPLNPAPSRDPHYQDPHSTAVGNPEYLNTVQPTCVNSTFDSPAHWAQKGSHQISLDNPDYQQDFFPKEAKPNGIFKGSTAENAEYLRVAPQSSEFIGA
Observable: pKd
# reply with the number alone; pKd is -log10 of concentration in mol/L

Here's what some known entries look like.
compound="C=CC(=O)Nc1cccc(Nc2nc(Nc3ccccc3)ncc2Cl)c1 [compound 1]" reported_value=7.24
compound="C=CC(=O)Nc1cccc(Nc2ncc(Cl)c(Nc3ccccc3)n2)c1 [compound 2a]" reported_value=6.47

Q: For the compound shown here, C=CC(=O)NCc1cccc(Nc2ncc(Cl)c(Nc3ccccc3)n2)c1 [compound 2b] , give the reported pKd.
Result: 6.77

* * *

Below, each of the molecules is paired with its reported Kd value.
target: EGFR (L858R) (Homo sapiens, UniProt P00533, L858R); construct: purchased DiscoverX; test: scanKINETIC binding kinetics assay (DiscoverX); details: Apparent Kd, EGFR LR (30× dilution), 30× dilution after 1 h incubation
Reply with just the number (in nM).

mol_smiles=C=CC(=O)NCc1cccc(Nc2ncc(Cl)c(Nc3ccccc3)n2)c1 result_units=nM reported_value=2900

# context switch: different molecule, same Kd
Q: For the molecule shown here, C=CC(=O)Nc1cccc(Nc2ncc(Cl)c(Nc3ccccc3)n2)c1 , give the reported Kd.
Result: 340

Data credit: paper PMC5496928
